Biological target: MCR-1 (Homo sapiens)
Sequence (Q01726 whole entry): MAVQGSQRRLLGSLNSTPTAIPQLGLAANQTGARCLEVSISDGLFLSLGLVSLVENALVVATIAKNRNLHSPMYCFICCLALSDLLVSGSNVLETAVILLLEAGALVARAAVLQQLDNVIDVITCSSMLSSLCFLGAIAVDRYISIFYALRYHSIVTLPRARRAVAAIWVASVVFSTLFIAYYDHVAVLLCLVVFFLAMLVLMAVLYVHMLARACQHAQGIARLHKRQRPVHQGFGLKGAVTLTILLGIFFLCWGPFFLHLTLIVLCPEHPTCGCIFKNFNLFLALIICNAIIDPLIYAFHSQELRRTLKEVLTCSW
Experiment: cAMP assay for melanocortin receptors, HEK 293 cells expressing MCR-1
Conditions: 50% of maximal cAMP production, read-out: MC-1 EC50 (cAMP)
Hi there, I'd appreciate the recorded EC50 for every entry that follows.
One number for each entry, in µM.

Please review the following examples before continuing.
CNC(CN)CCCCN1Cc2ccccc2C(CNC2CCCCC2)C1c1ccc(Cl)cc1Cl (centres unmarked)
8.52
CCNc1ccc(C2C(CNC3CCCCC3)c3ccccc3CN2CCCCC(CN)NC)cc1 (centres unmarked) [TRG 2405-239]
3.67
CNC(CN)CCCCN1Cc2ccccc2C(CNC2CCCCC2)C1c1ccc(Oc2ccccc2)cc1 (centres unmarked)
16
CNC(CN)CCCCN1Cc2ccccc2C(CNC2CCCCC2)C1c1ccc(-c2ccccc2)cc1 (centres unmarked)
10.4
CCCCNc1ccc(C2C(CNC3CCCCC3)c3ccccc3CN2CCCCC(CN)NC)cc1 (centres unmarked)
0.87
CCCOc1ccc(C2C(CNC3CCCCC3)c3ccccc3CN2CCCCC(CN)NC)cc1 (centres unmarked)
8.5

Now look at this entry.
Input line: Could you tell me which EC50 is on file for CNC(CN)CCCCN1Cc2ccccc2C(CNC2CCCCC2)C1c1ccc(O)cc1 (centres unmarked) ?
Output line: 23.7
